# maps each entry to its inhibition at 100 µM
biological target: rNaV1.8 (Rattus norvegicus); assay: Two-electrode voltage-clamp on Xenopus laevis oocytes expressing NaV1.8; settings: read-out: Maximum % inhibition NaV1.8
Sequence (Q62968 whole entry): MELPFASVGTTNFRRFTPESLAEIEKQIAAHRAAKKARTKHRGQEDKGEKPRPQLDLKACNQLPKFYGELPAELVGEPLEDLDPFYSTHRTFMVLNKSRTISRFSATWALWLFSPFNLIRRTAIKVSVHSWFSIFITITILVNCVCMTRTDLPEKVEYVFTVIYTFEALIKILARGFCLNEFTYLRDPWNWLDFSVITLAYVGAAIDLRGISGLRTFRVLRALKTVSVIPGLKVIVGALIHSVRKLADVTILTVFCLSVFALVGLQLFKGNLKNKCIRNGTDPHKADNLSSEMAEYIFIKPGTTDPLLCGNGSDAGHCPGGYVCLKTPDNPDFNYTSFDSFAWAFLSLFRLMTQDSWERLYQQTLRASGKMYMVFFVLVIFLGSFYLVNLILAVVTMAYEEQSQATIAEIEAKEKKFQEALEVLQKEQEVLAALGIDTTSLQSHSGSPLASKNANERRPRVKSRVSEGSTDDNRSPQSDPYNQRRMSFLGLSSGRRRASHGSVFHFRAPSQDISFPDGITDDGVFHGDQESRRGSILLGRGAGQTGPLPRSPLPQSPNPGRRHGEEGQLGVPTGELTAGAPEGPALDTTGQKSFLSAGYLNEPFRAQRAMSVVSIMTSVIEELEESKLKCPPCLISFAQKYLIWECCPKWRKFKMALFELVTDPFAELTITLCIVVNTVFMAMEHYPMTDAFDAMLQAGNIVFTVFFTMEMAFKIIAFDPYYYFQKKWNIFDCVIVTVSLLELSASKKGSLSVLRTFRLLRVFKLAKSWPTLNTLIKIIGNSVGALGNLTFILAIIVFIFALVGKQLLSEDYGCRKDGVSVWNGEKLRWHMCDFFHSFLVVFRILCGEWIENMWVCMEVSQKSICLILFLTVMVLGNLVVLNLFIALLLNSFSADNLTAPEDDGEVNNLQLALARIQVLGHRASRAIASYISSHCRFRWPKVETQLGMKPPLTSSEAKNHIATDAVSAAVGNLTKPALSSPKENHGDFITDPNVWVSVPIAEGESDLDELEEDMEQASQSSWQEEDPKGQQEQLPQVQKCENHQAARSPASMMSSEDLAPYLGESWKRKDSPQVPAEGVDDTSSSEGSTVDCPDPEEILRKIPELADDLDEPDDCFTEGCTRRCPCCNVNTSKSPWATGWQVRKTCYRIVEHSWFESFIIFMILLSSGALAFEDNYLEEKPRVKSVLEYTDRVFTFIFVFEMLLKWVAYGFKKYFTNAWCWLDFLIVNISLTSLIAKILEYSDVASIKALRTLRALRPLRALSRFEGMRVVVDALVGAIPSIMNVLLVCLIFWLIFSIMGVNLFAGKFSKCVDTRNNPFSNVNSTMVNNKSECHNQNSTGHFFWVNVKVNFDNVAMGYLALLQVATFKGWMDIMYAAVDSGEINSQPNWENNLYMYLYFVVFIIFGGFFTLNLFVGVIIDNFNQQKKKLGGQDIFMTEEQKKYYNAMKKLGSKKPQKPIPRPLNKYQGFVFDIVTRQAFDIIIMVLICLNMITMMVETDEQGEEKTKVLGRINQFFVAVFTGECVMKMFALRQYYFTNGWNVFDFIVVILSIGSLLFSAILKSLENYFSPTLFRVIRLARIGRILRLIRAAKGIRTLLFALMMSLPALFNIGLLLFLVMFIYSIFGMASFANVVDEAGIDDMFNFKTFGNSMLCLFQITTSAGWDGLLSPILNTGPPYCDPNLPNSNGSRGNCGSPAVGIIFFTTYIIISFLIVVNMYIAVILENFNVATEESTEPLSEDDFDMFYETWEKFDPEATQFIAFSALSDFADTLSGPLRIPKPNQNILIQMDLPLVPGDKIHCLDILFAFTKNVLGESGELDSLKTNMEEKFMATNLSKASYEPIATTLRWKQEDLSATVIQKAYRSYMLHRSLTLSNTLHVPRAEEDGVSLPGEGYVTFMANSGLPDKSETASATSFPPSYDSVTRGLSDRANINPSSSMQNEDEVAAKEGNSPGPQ
Where a SMILES comes first, the peptide text is derived from it. Bridges are numbered along the chain shown (N, C = ends).
# number only, unit % dropped from output

Below, 2 compounds whose answers are already recorded.
{"compound": "N=C(N)NCCC[C@@H]1NC(=O)[C@H](CC(N)=O)NC(=O)[C@H](Cc2c[nH]c3ccccc23)NC(=O)[C@H](CCCNC(=N)N)NC(=O)[C@H](CCC(=O)O)NC(=O)[C@H](Cc2c[nH]c3ccccc23)NC(=O)[C@H](CCCNC(=N)N)NC(=O)[C@H](CCCNC(=N)N)NC(=O)[C@@H](N)CSSC[C@@H](C(N)=O)NC1=O [PnCS1[A5E], CRRWERWNRC ^*] (H-CRRWERWNRC-NH2; disulfide 1-10)", "study.system": "rNaV1.8 (Rattus norvegicus)", "inhibition at 100 µM (%)": 0}
{"compound": "C[C@@H]1NC(=O)[C@H](Cc2c[nH]c3ccccc23)NC(=O)[C@H](CCCNC(=N)N)NC(=O)[C@H](CCCNC(=N)N)NC(=O)[C@@H](N)CSSC[C@@H](C(N)=O)NC(=O)[C@H](CCCNC(=N)N)NC(=O)[C@H](CC(N)=O)NC(=O)[C@H](CCCCN)NC(=O)[C@H](CCCNC(=N)N)NC1=O [PnCS1[W7K], CRRWARKNRC ^*] (H-CRRWARKNRC-NH2; disulfide 1-10)", "study.system": "rNaV1.8 (Rattus norvegicus)", "inhibition at 100 µM (%)": 0}

Next compound, inhibition at 100 µM to be filled in.
(Q) Which inhibition at 100 µM reading was recorded for the compound C[C@@H]1NC(=O)[C@H](Cc2c[nH]c3ccccc23)NC(=O)[C@H](CCCNC(=N)N)NC(=O)[C@H](CCCNC(=N)N)NC(=O)[C@@H](N)CSSC[C@@H](C(N)=O)NC(=O)[C@H](CCC(=O)O)NC(=O)[C@H](CC(N)=O)NC(=O)[C@H](Cc2c[nH]c3ccccc23)NC(=O)[C@H](CCCNC(=N)N)NC1=O [PnCS1[R9E], CRRWARWNEC ^*] (H-CRRWARWNEC-NH2; disulfide 1-10) ?
(A) 0
